These entries and their values trace back to BindingDB's records for PubMed 36166643.

- assay.procedure: Induction of CYP24A1 (unknown orgin) transcriptional activity trasfected in human MCF7 cells incuabted for 48 hrs by luciferase reporter gene assay
Recorded EC50 values for a group of molecules are listed next.
Give the value, in units of nM, as a plain number.

chem.smiles | EC50 [nM]
C=C1/C(=C\C=C(/CCCCCC(C)(C)O)c2cccc(CCCCCC(C)(C)O)c2)C[C@@H](O)C[C@@H]1O | 5.6

Next molecule, please.
EC50 recorded for this molecule, "C=C1/C(=C\C=C\c2cc(CCCCCC(C)(C)O)cc(CCCCCC(C)(C)O)c2)C[C@@H](O)C[C@@H]1O" , is 3
